// provenance: the RNAGym collection of RNA variant scans (doi:10.1021/acssynbio.7b00057)

B1: Pistol ribozyme (parent)
chain: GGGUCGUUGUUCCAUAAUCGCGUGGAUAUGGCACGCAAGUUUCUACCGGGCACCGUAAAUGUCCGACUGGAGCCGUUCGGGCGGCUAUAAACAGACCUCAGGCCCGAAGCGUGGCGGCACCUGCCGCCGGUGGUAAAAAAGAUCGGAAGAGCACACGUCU

Variants of: B1
Assay comment: aptazyme ON/OFF ratio, guanine; higher = stronger switching; co-transcriptional cleavage with and without guanine
Measurement name: aptazyme ON/OFF ratio

> print(dat)
                  variant.code       measurement.name  value.reported
 1      U7G U8C U10A C12G C13U  aptazyme ON/OFF ratio            1.32
 2  U7G U8C G9A U10A U11C C12U  aptazyme ON/OFF ratio            1.11
 3               U8G U11A C13A  aptazyme ON/OFF ratio            1.24
 4       U7G U8G G9U U10C U11G  aptazyme ON/OFF ratio            1.28
 5  U7C U8G G9A U10A U11A C13G  aptazyme ON/OFF ratio            1.07
 6  U7A U8C G9A U10C U11A C12U  aptazyme ON/OFF ratio            1.25
 7      U8A G9U U11A C12U C13A  aptazyme ON/OFF ratio            1.52
 8                   U11A C12G  aptazyme ON/OFF ratio            1.28
 9  U7C U8A G9C U11G C12U C13A  aptazyme ON/OFF ratio            1.18
10  U7A U8A G9C U11C C12A C13U  aptazyme ON/OFF ratio            1.05
11  U7A U8A G9U U10C C12A C13G  aptazyme ON/OFF ratio            1.15
